system: SW-620; assay: NCI tumour cell line growth inhibition, 48 h
Calls of active or inactive are those of the source. Rule as the data show it: active = GI50 up to about 1.1 µM and inactive = higher.
Mark one answer only. Choices: yes (1) (active), no (0) (inactive)

Recorded results for 5 molecules are shown here.
COc1cc2nc(Nc3cccc(Br)c3)nc(Nc3cccc(Br)c3)c2cc1OC	no (0)
Cc1cc(O)nc(NNC(C#N)c2cccc(O)c2)n1 (stereo unspecified)	no (0)
COc1ccc(N2C(=O)/C(=C/c3ccc(N(CCC#N)CCC#N)cc3)N=C2c2ccccc2)c(OC)c1	no (0)
CC(C)=CCCC1(C)C=Cc2c(c(C)cc3c2[nH]c2cc(O)ccc23)O1 (stereo unspecified)	no (0)
CS/C(=N\c1ccccc1)N(c1ccccc1)c1nc(=[N+](C)C)ss1.[O-][Cl+3]([O-])([O-])[O-]	no (0)

Which result was noted for this molecule in the test: "C[P+](C)(C)c1ccccc1"
no (0)

Which result was noted for this molecule in the test: "CCOc1cc(NC(C)=O)ccc1C(=O)NNS(=O)(=O)c1ccc(NC(C)=O)cc1"
no (0)

Which result was noted for this molecule in the test: COC(=O)C1Cc2ccc(C)cc2C1=O (stereo unspecified)
no (0)

Which result was noted for this molecule in the test: CCCCNC(=S)OCCC(C)CCCC(C)C (stereo unspecified)
no (0)

Which result was noted for this molecule in the test: "S=C(Nc1cc(Cl)c(Cl)cc1Cl)SCc1ccccc1"
no (0)

Which result was noted for this molecule in the test: "O=C(Nc1cc(Cl)ccc1Cl)c1cc2cccc(Br)c2oc1=O"
no (0)

Which result was noted for this molecule in the test: "CSc1cccc(-n2c3nc(=O)n(C)c(=O)c-3nc3ccccc32)c1"
no (0)

Which result was noted for this molecule in the test: C/C=C1\CC2C(=O)CCC2C2c3ccccc3OC12 (stereo unspecified)
no (0)

Which result was noted for this molecule in the test: "COc1ccc(-c2cc(-c3cc4cc(Br)ccc4nc3Cl)c(C#N)c(N)n2)cc1"
no (0)

Which result was noted for this molecule in the test: O=C(CN1CCN(c2cccc(Cl)c2)CC1)N1CCc2c([nH]c3ccccc23)C1c1cccnc1 (stereo unspecified)
no (0)

Which result was noted for this molecule in the test: "CN(C)c1ccc(/C=C2\N=C(c3ccccc3)N(c3nc4ccc(Sc5ccccc5)cc4[nH]3)C2=O)cc1"
no (0)

Which result was noted for this molecule in the test: "COc1ccc(CNc2nc3ccccc3nc2C(=O)O)cc1OC"
no (0)

Which result was noted for this molecule in the test: "COc1cccc(CCn2c(N)c(-c3ccccc3)c3ccc([N+](=O)[O-])cc3c2=O)c1"
no (0)

Which result was noted for this molecule in the test: C=C1C(O)CC[C@]2(C)C1C1OC(C)(C)O[C@]13CC(=O)C(C)=C([C@H]1OC(C)(C)OC12)C3(C)C (stereo partly specified)
no (0)

Which result was noted for this molecule in the test: COC(COC(=O)N1CCN(C=O)CC1)C1=C(N2CC2)C(=O)C(C)=C(N2CC2)C1=O (stereo unspecified)
yes (1)

Which result was noted for this molecule in the test: "CC(=O)OC(OC(C)=O)c1ncccc1C(=O)OC(C)C"
no (0)

###

In what follows, each item is paired with its GI50 for HCT-15.
Give bare numbers, in µM.

Please review the entries below; each comes with its answer.
O=C(c1ccccc1)[C@H]1Nc2ccc(Cl)cc2[C@H]2OCCC[C@@H]12	23.1
CCOc1cc(NC(C)=O)ccc1C(=O)NNS(=O)(=O)c1ccc(NC(C)=O)cc1	53.6
Cc1nc2ccc(Cl)cc2c(-n2ccnc2)c1CCn1ccnc1	22.7

// each listed compound needs a value for GI50
1. O=C(Nc1ccccc1)C(=O)C(C(=O)c1ccccc1F)C1OC(=O)c2ccccc21 (stereo not drawn)
2. CN1CCCC(OC(=O)c2cc3cc(CCl)ccc3oc2=O)C1 (stereo not drawn)
3. O=C(NI1OC(=O)c2ccccc21)c1ccc(Cl)cc1
4. [N-]=[N+]=C(C(=O)N1CCCC1=O)S(=O)(=O)c1ccccc1
5. CCCCCCCCCCCC(=O)OC[C@H](C[As](=O)(O)O)OC(=O)CCCCCCCCCCC

[22.9, 19.2, 96.6, 51.9, 8.26]

// each listed compound needs a value for GI50
1. Cc1nc2ccc(NCCN(C)C)c3c(=O)c4ccccc4n1c23
2. COc1cc(C2SCC(=O)N2c2ccc(NC(=O)c3ccc(N4C(=O)CSC4c4cc(OC)c(OC)c(OC)c4)cc3)cc2)cc(OC)c1OC (stereo not drawn)
3. CN(C1=NS(=O)(=O)N=C(N(C)c2ccccc2)O1)c1ccccc1
4. Cc1ccc(/C=C2\CCC/C(=C\c3ccc(O)c(CN4CCCCC4)c3)C2=O)cc1
5. O=S(=O)(NNc1ccccc1)c1ccccc1
6. COc1cc([C@@H]2c3cc4c(cc3[C@@H](/N=C/c3ccc(C(=O)O[C@H]5C[C@H]6OC[C@@]6(OC(C)=O)[C@H]6[C@H](OC(=O)c7ccccc7)[C@]7(O)C[C@H](OC(=O)[C@H](OC(=O)c8ccc(/C=N/[C@@H]9c%10cc%11c(cc%10[C@@H](c%10cc(OC)c(O)c(OC)c%10)[C@H]%10C(=O)OC[C@@H]%109)OCO%11)cc8)[C@@H](NC(=O)c8ccccc8)c8ccccc8)C(C)=C([C@@H](OC(C)=O)C(=O)[C@]56C)C7(C)C)cc3)C3COC(=O)C32)OCO4)cc(C)c1O (stereo partly drawn)
7. COc1cccc(CCn2c(N)c(-c3ccccc3)c3ccc([N+](=O)[O-])cc3c2=O)c1
8. CC(C)=CC(=O)OC1C2C(C)C(=O)OC2C(O)C(C)C2C=CC(=O)C21C (stereo not drawn)

1.25
38.5
15.1
3.02
11.5
19.2
7.08
2

Request the reported GI50 associated with "C#CCn1c(=O)ccn(/C(=C/C(=O)OCC)C(=O)OCC)c1=O"
1.06

###

tested on: EKVX; assay: NCI tumour cell line growth inhibition, 48 h
Activity calls are given as the source filed them. No stated cut-off is given here; in the data, active = GI50 up to about 1.1 µM and inactive = higher.
Answer each item with its documented GI50.

Cc1ccc(S(=O)(=O)NC(=O)NCCc2c[nH]cn2)cc1	> 100 µM (inactive)
COc1cc(C(O)CCBr)c(OC)cc1C (stereo not given)	> 100 µM (inactive)
CCCCCCCCCCCCCCCC[N+](C)(C)Cc1ccc(F)cc1	2 µM (inactive)

// each listed compound needs a value for GI50
1. O=C(/C=C\c1ccc([N+](=O)[O-])cc1)c1ccccc(=O)c1O
2. O=c1[nH]cnc2c1ncn2[C@H]1CO[C@@H](CO)[C@@H]1O

1.81 µM (inactive)
> 100 µM (inactive)

###

Answer each item with its documented GI50.
tested on: Malme-3M; assay: NCI tumour cell line growth inhibition, 48 h
Activity calls are given as the source filed them. Cut-off read from the data, not from the text of the source: active = GI50 up to about 1.1 µM and inactive = higher.

Please review the entries below; each comes with its answer.
Cc1cc(O)nc(NNC(C#N)c2cccc(O)c2)n1 (stereo unspecified)	79.1 µM (inactive)
CC(=O)Nc1ccc(/C=C/C(=O)c2sc(-c3cccnc3)nc2C)cc1	> 100 µM (inactive)
COC(=O)C1Cc2ccc(C)cc2C1=O (stereo unspecified)	> 100 µM (inactive)
Cn1c(=O)c2nc3sc4ccccc4c(=N)n3c2n(C)c1=O	> 100 µM (inactive)
CCCCCCCCCOC(=S)NC	20.6 µM (inactive)

Then there is this molecule:
Please provide the recorded GI50 for "CC(C)(C)n1c(=O)n(C(=O)C(Cl)(Cl)Cl)n(C(=O)C(Cl)(Cl)Cl)c1=O" , tested on Malme-3M.
> 100 µM (inactive)

###

test system: M14; experiment: NCI tumour cell line growth inhibition, 48 h
Calls of active or inactive are those of the source. Cut-off read from the data, not from the text of the source: active = GI50 up to about 1.1 µM and inactive = higher.
Mark one answer only. Choices: active, inactive

Recorded results for 3 molecules are shown here.
NS(=O)(=O)c1ccc(/N=N/c2cccnc2O)cc1	inactive
CCOC(=O)c1nc2ccccc2nc1Nc1cc(OC)c(OC)c(OC)c1	inactive
N=c1ccn2c(n1)OC1C(OP(=O)(O)O)C(CO)OC12 (stereo unspecified)	active

Which result was noted for this molecule in the test: NC(=O)N/N=C1\CC2C3CC4C2C4C13 (stereo unspecified)
inactive

Which result was noted for this molecule in the test: "OC(c1nc2ccccc2s1)(C(F)(F)F)C(F)(F)F"
inactive

###

tested on: SK-MEL-28; assay: NCI tumour cell line growth inhibition, 48 h
Calls of active or inactive are those of the source. Rule as the data show it: active = GI50 up to about 1.1 µM and inactive = higher.
Answer each item with its documented GI50.

O=[N+]([O-])c1cccc(-c2oc(/C=N/c3ccccc3)c([N+](=O)[O-])c2-c2cccc([N+](=O)[O-])c2)c1	> 100 µM (inactive)
O=C1c2c(ccc3c2CCCC3)CC12Cc1ccccc1C2	14.4 µM (inactive)
c1ccc(C2C3=C(CCCC3)Nc3nc4cc5ccccc5cc4n32)cc1 (stereo not given)	> 100 µM (inactive)
CCOCc1c(C)cc(C)c(C2C(C(=O)c3ccccc3)N3c4ccccc4C=CC3C2(C#N)C(=O)OCC)c1C (stereo not given)	64.6 µM (inactive)

Request the reported GI50 associated with "CS(=O)(=O)C1S(=O)(=O)OCCOS1(=O)=O"
> 100 µM (inactive)
